- experimental system: T1, CD40hfc (R&Dsystems, USA) (UniProt P25942 21-193)
- T1 construct: Bought reagent; also called immobilized CD40 receptor; target; not shown: Fc part ('hfc') of the bought fusion
- T1 sequence (P25942 21-193 limits assumed): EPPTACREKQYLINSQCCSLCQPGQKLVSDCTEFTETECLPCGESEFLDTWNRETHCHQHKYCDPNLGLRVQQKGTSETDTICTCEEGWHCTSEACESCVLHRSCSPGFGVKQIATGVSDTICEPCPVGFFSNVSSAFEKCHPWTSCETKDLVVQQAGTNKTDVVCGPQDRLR
- measurement protocol: SPR, physiological pH and 37 C
assay metric: fold improvement of affinity versus B44

INSERT INTO results (binder, measured_result) VALUES
  ('Antibody clone A4 (antibody, human IgG1, lambda, V domains shown, Tested as purified antibody; full chains are assembled here from VH/VL plus these; also called A4 ANTI-CD40 ANTIBODY) VH: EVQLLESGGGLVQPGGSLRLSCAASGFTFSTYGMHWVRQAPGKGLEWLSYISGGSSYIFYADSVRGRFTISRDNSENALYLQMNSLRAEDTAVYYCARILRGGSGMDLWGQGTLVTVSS VL: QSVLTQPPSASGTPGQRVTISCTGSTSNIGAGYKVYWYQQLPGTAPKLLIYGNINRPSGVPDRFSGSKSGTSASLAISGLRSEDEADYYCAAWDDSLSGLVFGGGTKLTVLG', '~100 fold');

Note: attention shifts to another entry.
What does the data say about its fold improvement of affinity versus B44? Entry: Antibody clone A5 (antibody, human IgG1, lambda, V domains shown) VH: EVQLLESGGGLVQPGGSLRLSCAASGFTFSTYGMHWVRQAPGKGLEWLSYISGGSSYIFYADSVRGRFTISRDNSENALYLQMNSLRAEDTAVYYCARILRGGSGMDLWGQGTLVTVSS VL: QSVLTQPPSASGTPGQRVTISCTGSSSNIGAGYHVYWYQQLPGTAPKLLIYGSINRPSGVPDRFSGSKSGTSGSLAISGLRSEDEADYYCAAWDSSSSGLVFGGGTKLTVLG ~100 fold
